- System: Lactococcus lactis
- Procedure text: Antimicrobial activity against Streptococcus lactis assessed as zone of inhibition at 10 ug/ml
- Type: functional
- Condition description: read-out: IZ
Property: zone of inhibition at 10 µg/mL

INSERT INTO measurements (smi, data_value) VALUES
  ('CC(=O)OC[C@H]1O[C@H](n2nnnc2Cn2nnc3ccccc32)[C@H](OC(C)=O)[C@@H](OC(C)=O)[C@@H]1OC(C)=O', '15 to 17 mm'),
  ('c1ccc2c(c1)nnn2Cc1nnn[nH]1', '11 to 16 mm'),
  ('OC[C@H]1O[C@H](n2nnnc2Cn2nnc3ccccc32)[C@H](O)[C@@H](O)[C@@H]1O', '11 to 15 mm'),
  ('CN[C@@H]1[C@H](O[C@H]2[C@H](O[C@H]3[C@H](O)[C@@H](O)[C@H](N=C(N)N)[C@@H](O)[C@@H]3N=C(N)N)O[C@@H](C)[C@]2(O)C=O)O[C@@H](CO)[C@H](O)[C@H]1O', '21 to 22 mm');
